Source: PubChem BioAssay (Tox21)

Assay: p53 small molecule agonists, cell-based qHTS assay: qHTS cell viability counter screen (AID 1963581); further: nearly all actives have a fitted effect of over 45% in size
Settings: p53RE-bla HCT-116 viability, ATP luminescence, 16 h; series mostly up to 66 µM
Records with an inconclusive call do not appear. Activity calls are given as the source filed them. The call rests on the fitted dose curve.
quantity.measured: outcome

INSERT INTO results (molecule, recorded_result) VALUES
  ('CCOP(=O)(OCC)OCC', 'inactive'),
  ('O=c1[nH]c2ccccc2c(=O)o1', 'inactive'),
  ('CCOC(=O)CC(SP(=O)(OC)OC)C(=O)OCC (stereo not given)', 'inactive'),
  ('CC(C)(O)C(=O)Nc1ccc([N+](=O)[O-])c(C(F)(F)F)c1', 'inactive'),
  ('CCC[N+]1(C)CCCC1', 'inactive'),
  ('c1ccc(-c2ccccc2)cc1', 'inactive'),
  ('CCOP(=O)(OCC)Oc1ccc([N+](=O)[O-])cc1', 'inactive'),
  ('ClC(Cl)=C(Cl)C(Cl)=C(Cl)Cl', 'inactive'),
  ('Clc1ccc(Cl)c(Cl)c1', 'inactive'),
  ('CNC', 'inactive'),
  ('O=C1CCCN1', 'inactive'),
  ('C(CCOCC1CO1)COCC1CO1 (stereo not given)', 'inactive'),
  ('CCOc1cc(C=O)ccc1O', 'inactive'),
  ('O=C(O)COc1cc(Cl)c(Cl)cc1Cl', 'inactive'),
  ('CCOP(=S)(OCC)Oc1ccc([N+](=O)[O-])cc1', 'inactive');

---

Molecular target: D(2) dopamine receptor (Homo sapiens)
Test: Dopamine D2 receptor (DRD2) small molecule agonists, cell-based qHTS assay (AID 1963594); further: nearly all actives have a fitted effect of over 35% in size
Conditions: HEK293-DRD2 cAMP HTRF, agonist mode, 30 min; series mostly up to 92.4 µM
Inconclusive results are not listed. Active and inactive are the calls of the source. The call rests on the fitted dose curve.
quantity.measured: activation

INSERT INTO results (compound, target_desc, quantity_measured, recorded_result) VALUES
  ('N#CSCSC#N', 'D(2) dopamine receptor (Homo sapiens)', 'activation', 'inactive'),
  ('CCOP(=S)(OCC)Oc1nc(Cl)c(Cl)cc1Cl', 'D(2) dopamine receptor (Homo sapiens)', 'activation', 'inactive'),
  ('O=C1CC(=O)NC(=O)N1', 'D(2) dopamine receptor (Homo sapiens)', 'activation', 'inactive'),
  ('CCOP(=S)(OCC)Oc1ccc([N+](=O)[O-])cc1', 'D(2) dopamine receptor (Homo sapiens)', 'activation', 'inactive'),
  ('CCCCN=C=O', 'D(2) dopamine receptor (Homo sapiens)', 'activation', 'inactive'),
  ('CNC(=O)N(C)c1nnc(C(C)(C)C)s1', 'D(2) dopamine receptor (Homo sapiens)', 'activation', 'inactive'),
  ('ClC(Cl)c1ccccc1', 'D(2) dopamine receptor (Homo sapiens)', 'activation', 'inactive'),
  ('O=Cc1ccco1', 'D(2) dopamine receptor (Homo sapiens)', 'activation', 'inactive'),
  ('CC(C)(N)Cc1ccccc1Cl', 'D(2) dopamine receptor (Homo sapiens)', 'activation', 'inactive'),
  ('C=CC(Cl)CCl (configuration not stated)', 'D(2) dopamine receptor (Homo sapiens)', 'activation', 'inactive'),
  ('Cc1cccc([N+](=O)[O-])c1', 'D(2) dopamine receptor (Homo sapiens)', 'activation', 'inactive'),
  ('N#CCC#N', 'D(2) dopamine receptor (Homo sapiens)', 'activation', 'inactive'),
  ('CN(C)CCc1ccc(O)cc1', 'D(2) dopamine receptor (Homo sapiens)', 'activation', 'inactive'),
  ('ClC(Cl)(Cl)c1ccccc1', 'D(2) dopamine receptor (Homo sapiens)', 'activation', 'inactive'),
  ('NNc1ccccc1', 'D(2) dopamine receptor (Homo sapiens)', 'activation', 'inactive'),
  ('CCCCCCCCOC(=O)c1ccc(C(=O)OCCCCCCCC)c(C(=O)OCCCCCCCC)c1', 'D(2) dopamine receptor (Homo sapiens)', 'activation', 'inactive'),
  ('CCOP(=S)(OCC)SCSC(C)(C)C', 'D(2) dopamine receptor (Homo sapiens)', 'activation', 'inactive'),
  ('Cc1ccc(C(=O)Cl)cc1', 'D(2) dopamine receptor (Homo sapiens)', 'activation', 'inactive'),
  ('Cc1cc(C)cc(C)c1', 'D(2) dopamine receptor (Homo sapiens)', 'activation', 'inactive'),
  ('C/C(=N\NC(=O)Nc1cc(F)cc(F)c1)c1ncccc1C(=O)O', 'D(2) dopamine receptor (Homo sapiens)', 'activation', 'inactive'),
  ('CCCCCCCCSC(=O)Oc1cc(Cl)nnc1-c1ccccc1', 'D(2) dopamine receptor (Homo sapiens)', 'activation', 'inactive'),
  ('CC(Cl)(Cl)C(=O)O', 'D(2) dopamine receptor (Homo sapiens)', 'activation', 'inactive'),
  ('CCOP(=S)(OCC)O/N=C(\C#N)c1ccccc1', 'D(2) dopamine receptor (Homo sapiens)', 'activation', 'inactive'),
  ('CCCN(CCOc1c(Cl)cc(Cl)cc1Cl)C(=O)n1ccnc1', 'D(2) dopamine receptor (Homo sapiens)', 'activation', 'inactive'),
  ('Cc1cc(-c2cc(C)c(N)c(C)c2)cc(C)c1N', 'D(2) dopamine receptor (Homo sapiens)', 'activation', 'inactive'),
  ('CCC[CH2][Sn]([Cl])([Cl])[CH2]CCC', 'D(2) dopamine receptor (Homo sapiens)', 'activation', 'inactive'),
  ('N#Cc1c(Cl)c(Cl)c(Cl)c(C#N)c1Cl', 'D(2) dopamine receptor (Homo sapiens)', 'activation', 'inactive'),
  ('c1ccc(Nc2ccc3ccccc3c2)cc1', 'D(2) dopamine receptor (Homo sapiens)', 'activation', 'inactive'),
  ('Nc1ccc(-c2ccc(N)c(N)c2)cc1N', 'D(2) dopamine receptor (Homo sapiens)', 'activation', 'inactive'),
  ('C=CCc1ccccc1O', 'D(2) dopamine receptor (Homo sapiens)', 'activation', 'inactive'),
  ('CS(=O)(=O)Cl', 'D(2) dopamine receptor (Homo sapiens)', 'activation', 'inactive'),
  ('C=C(C)[C@@H]1CC=C(C=O)CC1', 'D(2) dopamine receptor (Homo sapiens)', 'activation', 'inactive');
